System: MDA-MB-231
Assay: Cytotoxicity against human MDA-MB-231 cells after 4 days by MTT assay
Format: functional, cell-based
Conditions: MDA-MB-231, 96 h
pIC50: −log10 of the molar value.
Lab note: compare pIC50 against 5. Equal or greater, write TRUE. Smaller, write FALSE.

Is the recorded value of pIC50 equal to or greater than 5 for this compound? `O=C(O)c1ccc(-c2nc3ccccc3c(=O)[nH]2)cc1`
FALSE

Is the recorded value of pIC50 equal to or greater than 5 for this compound? `O=C(c1ccc(-c2nc3ccccc3c(=O)[nH]2)cc1)N1CCN(S(=O)(=O)c2ccccc2C(F)(F)F)CC1`
TRUE

Is the recorded value of pIC50 equal to or greater than 5 for this compound? `Cn1c(-c2ccc(C(=O)N3CCN(C(=O)OC(C)(C)C)CC3)cc2)nc2ccccc2c1=O`
FALSE

Is the recorded value of pIC50 equal to or greater than 5 for this compound? `CC(C)S(=O)(=O)N1CCN(C(=O)c2ccc(-c3nc4ccccc4c(=O)[nH]3)cc2)CC1`
TRUE

Is the recorded value of pIC50 equal to or greater than 5 for this compound? `COc1ccc(S(=O)(=O)N2CCN(C(=O)c3ccc(-c4nc5ccccc5c(=O)n4C)cc3)CC2)cc1`
FALSE

Is the recorded value of pIC50 equal to or greater than 5 for this compound? `COc1ccc(Cn2c(-c3ccc(C(=O)N4CCN(S(=O)(=O)c5ccccc5)CC4)cc3)nc3ccccc3c2=O)cc1`
TRUE

Is the recorded value of pIC50 equal to or greater than 5 for this compound? `Cc1ccc(S(=O)(=O)N2CCN(C(=O)c3ccc(-c4nc5ccccc5c(=O)[nH]4)cc3)CC2)cc1`
FALSE

Is the recorded value of pIC50 equal to or greater than 5 for this compound? `O=C(c1ccc(-c2nc3ccccc3c(=O)[nH]2)cc1)N1CCN(S(=O)(=O)Cc2ccccc2)CC1`
FALSE

Is the recorded value of pIC50 equal to or greater than 5 for this compound? `O=C(c1ccc(-c2nc3ccccc3c(=O)[nH]2)cc1)N1CCN(S(=O)(=O)c2ccc(C(F)(F)F)cc2)CC1`
FALSE

Is the recorded value of pIC50 equal to or greater than 5 for this compound? `O=C(c1ccc(-c2nc3ccccc3c(=O)[nH]2)cc1)N1CCN(S(=O)(=O)c2ccc(F)cc2)CC1`
FALSE

Is the recorded value of pIC50 equal to or greater than 5 for this compound? `CC(C)(C)OC(=O)N1CCN(C(=O)c2ccc(-c3nc4ccccc4c(=O)n3Cc3ccccc3)cc2)CC1`
FALSE

Is the recorded value of pIC50 equal to or greater than 5 for this compound? `CCCCS(=O)(=O)N1CCN(C(=O)c2ccc(-c3nc4ccccc4c(=O)[nH]3)cc2)CC1`
TRUE
